Attribution: ChEMBL document CHEMBL3616434

- Assay name: Thermodynamic equilibrium solubility of the compound using 10 mM DMSO at pH 7.4
- Assay type: physicochemical
- Protocol conditions: buffer, read-out: Therm_solubility
solubility thermodynamic values for the compounds below.
Recorded endpoint: solubility thermodynamic

{"Smiles record": "CCc1nc2ccccc2n1CCCCSc1nnc(-c2ccc(Cl)cc2)o1", "Test result": "< 1 µg/mL"}
{"Smiles record": "CCc1nc2cc(Cl)ccc2n1CCCCOc1ccccc1", "Test result": "< 1 µg/mL"}
{"Smiles record": "CCc1nc2ccc(C)cc2n1CCCCOc1ccccc1", "Test result": "10 µg/mL"}
{"Smiles record": "CCc1nc2ccccc2n1CCCCNc1ccccc1", "Test result": "< 1 µg/mL"}

###

- Assay name: Cytotoxicity against African green monkey Vero cells after 2 days by luminescent assay
- Type: cell-based
- Protocol conditions: chlorocebus sabaeus, read-out: TC50
Measured CC50 at 48 h, listed per entry for reference.

{"Smiles record": "CCc1cc2ccccc2n1CCCCSc1nnc(-c2ccc(Cl)cc2)o1", "Censoring sign": ">", "CC50 at 48 h, µM": 50}
{"Smiles record": "c1ccc(OCCCCn2ncc3ccccc32)cc1", "Censoring sign": ">", "CC50 at 48 h, µM": 50}
{"Smiles record": "Cc1nc2ccccc2n1CCCOc1ccccc1", "Censoring sign": ">", "CC50 at 48 h, µM": 50}
{"Smiles record": "CCc1nc2ccccc2n1CCCCOc1ccnc2ccccc12", "Censoring sign": ">", "CC50 at 48 h, µM": 50}
{"Smiles record": "CCc1nc2ccccc2n1CCCCOc1ccncc1", "Censoring sign": ">", "CC50 at 48 h, µM": 50}
{"Smiles record": "CCc1nc2ccccc2n1CCCCOc1ccccc1C(C)C", "Censoring sign": "=", "CC50 at 48 h, µM": 19}
{"Smiles record": "CCc1nc2ccccc2n1CCCCOc1ccc2sc(C)nc2c1", "Censoring sign": "=", "CC50 at 48 h, µM": 21}
{"Smiles record": "CCc1nc2ccccc2n1CCCCOc1ccc(Cl)cc1", "Censoring sign": "=", "CC50 at 48 h, µM": 14}
{"Smiles record": "CCc1nc2ccccc2n1CCCCOc1ccc(C)c(Cl)c1", "Censoring sign": "=", "CC50 at 48 h, µM": 14}
{"Smiles record": "CCc1nc2ccccc2n1CCCCOc1cccnc1", "Censoring sign": ">", "CC50 at 48 h, µM": 50}
{"Smiles record": "CCc1nc2ccccc2n1CCCCOc1ccc(C#N)cc1", "Censoring sign": "=", "CC50 at 48 h, µM": 27}

###

- Test system: Mycobacterium tuberculosis
- Assay name: Antitubercular activity against Mycobacterium tuberculosis H37Rv ATCC 25618 under aerobic condition after 5 days
- Assay type: functional
- Protocol conditions: H37Rv ATCC 25618, 120 h
# MIC annotations

{"Compound": "CCc1nc2ccccc2n1CCCCOc1ccc(C)c(C)c1", "MIC": "0.3 µM"}
{"Compound": "FC(F)(F)c1nc2ccccc2n1CCCCOc1ccccc1", "MIC": "> 20 µM"}
{"Compound": "CCc1nc2ccccc2n1CCCCOc1ccccc1C", "MIC": "0.32 µM"}
{"Compound": "CCc1nc2ccc(C)cc2n1CCCCOc1ccccc1", "MIC": "0.27 µM"}
{"Compound": "CCc1nc2ccccc2n1CCCCOc1ccc(C)cc1", "MIC": "0.15 µM"}
{"Compound": "Cc1nc2ccccc2n1CCCCOc1ccccc1", "MIC": "> 20 µM"}
{"Compound": "CCc1nc2ccc(C#N)cc2n1CCCCOc1ccccc1", "MIC": "> 20 µM"}
{"Compound": "Cc1ccc2nc(C(C)O)n(CCCCOc3ccccc3)c2c1 (stereo not drawn)", "MIC": "20 µM"}
{"Compound": "Clc1nc2ccccc2n1CCCCOc1ccccc1", "MIC": "> 20 µM"}
{"Compound": "CCc1nc2ccccc2n1CCCCOc1cccnc1", "MIC": "> 20 µM"}
{"Compound": "c1ccc(OCCCCn2cnc3ccccc32)cc1", "MIC": "> 20 µM"}
{"Compound": "CCc1nc2ccc(C)cc2n1CCCCNc1ccccc1", "MIC": "0.32 µM"}
{"Compound": "CCc1nc2ccccc2n1CCCCSc1ccccc1", "MIC": "1.4 µM"}
{"Compound": "CCc1nc2ccccc2n1CCCCOc1cc(C)c(CN2CCOCC2)cc1C", "MIC": "1.3 µM"}
{"Compound": "CCc1nc2cc(Cl)cnc2n1CCCCOc1ccccc1", "MIC": "6.1 µM"}
{"Compound": "CCc1nc2cnccc2n1CCCCOc1ccccc1", "MIC": "> 20 µM"}
{"Compound": "CCc1nc2ccc(C)cc2n1CCCNc1ccc(Br)c(C)c1", "MIC": "0.052 µM"}
{"Compound": "CCc1nc2ccc(C)cc2n1CCCOc1ccc(C)c(Cl)c1", "MIC": "0.22 µM"}
{"Compound": "Cc1nc2ccccc2n1CCOc1ccccc1", "MIC": "> 20 µM"}
{"Compound": "CCc1nc2ccccc2n1CCCCOc1ccc(Cl)cc1Cl", "MIC": "1.8 µM"}
{"Compound": "CCc1nc2cc(Cl)ccc2n1CCCCOc1ccccc1", "MIC": "0.3 µM"}
{"Compound": "CCc1nc2cc(OC)ccc2n1CCCCOc1ccccc1", "MIC": "> 20 µM"}
{"Compound": "CCc1nc2ccccc2n1CCCCOc1ccc2sc(C)nc2c1", "MIC": "1.5 µM"}
{"Compound": "CCc1nc2ccccc2n1CCOc1ccccc1", "MIC": "> 20 µM"}
{"Compound": "CCc1nc2ccccc2n1CCCCOc1ccccc1Cl", "MIC": "0.68 µM"}
{"Compound": "CCc1nc2cc(C#N)ccc2n1CCCCOc1ccccc1", "MIC": "> 20 µM"}
{"Compound": "CCc1nc2ccccc2n1CCCCOc1cccc(Cl)c1", "MIC": "0.88 µM"}
{"Compound": "CCc1cc2ccccc2n1CCCCOc1ccc(C)c(Cl)c1", "MIC": "> 20 µM"}
{"Compound": "CCc1nc2ccc(C)cc2n1CCCCNc1ccc(C)cc1C", "MIC": "0.31 µM"}
{"Compound": "CCc1nc2ccccc2n1CCCCOc1ccc(OC)cc1", "MIC": "1.2 µM"}
{"Compound": "CCc1nc2ccccc2n1CCCCOc1ccc(Cl)cc1C", "MIC": "1.5 µM"}
{"Compound": "CCc1nc2ccccc2n1CCCCOc1cc(C)c(Cl)c([N+](=O)[O-])c1", "MIC": "7.9 µM"}
{"Compound": "CCc1nc2ccccc2n1CCCCOc1cccc(C)c1", "MIC": "0.42 µM"}
